Data origin, for the record: ChEMBL document CHEMBL3217626

// values below are reported Activity
# Tested on: SH-SY5Y
# assay_text: Neuroprotective activity in human SH-SY5Y cells under serum-free condition assessed as protection against potassium-induced toxicity at 5 uM after 24 hrs by MTT assay relative to control
# Type: functional
Please format your answer as a value with the unit trailing.

| molecule | observed_property | result_value |
| --- | --- | --- |
| CC1=C(C(=O)SC(C)(C)C)C(c2ccc(C)cc2)C=C(c2ccc(C)cc2)N1 (configuration not stated) | Activity | 36.24% |
| CCOC(=O)C1=C(C)NC(c2ccc(C)cc2)=CC1c1cccs1 (configuration not stated) | Activity | 50.73% |
| CC1=C(C(=O)SC(C)(C)C)C(/C(C)=C/c2ccccc2)C=C(c2ccccc2)N1 (configuration not stated) | Activity | 35.26% |
| CC1=C(C(=O)SC(C)(C)C)C(c2ccc(C)cc2)C=C(c2ccccc2)N1 (configuration not stated) | Activity | 30.44% |
| COc1ccc(C2C=C(c3ccccc3)NC(C)=C2C(=O)SC(C)(C)C)cc1 (configuration not stated) | Activity | 31.27% |

[Q] Requested read-out: Activity. Entry: O=C1CCCC2=C1C(c1ccccc1)C=C(c1ccccc1)N2 (configuration not stated)
[A] 28.23%
